# credit: patent US20250382355A1

Quick reference: pseudovirus neutralization IC50 of the listed items.
target_under_test: SARS-CoV spike on rVSV-deltaG-Luc pseudovirus (SARS-CoV, UniProt P59594 14-1236)
test_description: cell-based or functional assay
measured_attribute: pseudovirus neutralization IC50 (nM)

binder: 11F8 VHH-Fc (Fc fusion) QVQLVESGGGLVQAGGSLRLSCAASGRTVGYYAVGWFRQAPGKERDFVAAISWSGRNTNYADSVTGRFTIFRDNAKNTVDLQMNSLKPEDTAVYYCAADYWNYGSGSEVPNNYDTWGQGTQVTVSS
measured_attribute: pseudovirus neutralization IC50
recorded_result: 207
//
binder: 15H1 VHH-Fc (Fc fusion) QVQLVESGGGLAQAGGSLRLSCASSGLIFSGSAMGWFRQAPGKEREFVGVISWNGRTTYADSVKGRFTISRDDAVNMVWLQMNNLKPEDTAVYYCAADHLNYGSGDVNPRTYDYWGQGTQVTVSS
measured_attribute: pseudovirus neutralization IC50
recorded_result: 12.3
